# experimentalSystem: rat NaPi-2b (Rattus norvegicus, UniProt Q9JJ09)
# Construct: expressed in transfected cells; host or cells: Xenopus oocytes injected with cRNA
# Sequence (Q9JJ09 1-695): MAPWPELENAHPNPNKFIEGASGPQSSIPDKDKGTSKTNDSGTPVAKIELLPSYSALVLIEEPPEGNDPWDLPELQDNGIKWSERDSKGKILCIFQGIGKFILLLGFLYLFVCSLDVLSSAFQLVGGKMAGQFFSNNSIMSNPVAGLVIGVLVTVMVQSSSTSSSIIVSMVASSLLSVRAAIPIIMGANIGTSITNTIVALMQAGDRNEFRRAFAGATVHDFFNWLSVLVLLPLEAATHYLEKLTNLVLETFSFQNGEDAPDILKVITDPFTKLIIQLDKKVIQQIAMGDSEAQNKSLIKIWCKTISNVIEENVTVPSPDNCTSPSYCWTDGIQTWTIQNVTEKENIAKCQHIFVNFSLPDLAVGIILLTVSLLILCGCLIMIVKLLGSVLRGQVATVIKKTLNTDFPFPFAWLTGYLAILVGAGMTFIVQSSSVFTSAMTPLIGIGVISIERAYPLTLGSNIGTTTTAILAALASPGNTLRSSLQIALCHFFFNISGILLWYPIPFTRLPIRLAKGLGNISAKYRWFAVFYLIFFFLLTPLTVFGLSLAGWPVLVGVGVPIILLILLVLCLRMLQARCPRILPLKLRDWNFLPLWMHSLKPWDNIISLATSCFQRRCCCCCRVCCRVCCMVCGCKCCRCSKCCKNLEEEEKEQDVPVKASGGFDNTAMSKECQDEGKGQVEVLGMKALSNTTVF
# testName: Sodium-dependent phosphate uptake of Xenopus oocytes which expressed NaPi-2b (32P)
# Assay type: cell-based
# testConditions: phosphate uptake, oocytes expressing rat NaPi-2b; 300 μM, determined from inhibition curve
# Procedure: Pharmacological Test Example 1 Experiment of Sodium-Dependent Phosphate Uptake of Xenopus oocytes which Expressed NaPi-2b Degenerate primers were prepared from sequences of mouse NaPi-2b disclosed in Hilfiker H. et al., Pro Natl Acad Sci USA, 95 (24): 14564-14569, […] and sequences of human and rat NaPi-2a disclosed in Magagnin S. et al., Proc Natl Aca Sci USA, 90 (13): 5979-5983, 1993. RNA was extracted from the rat small intestine using ISOGEN; manufactured by NIPPON GENE CO., LTD (Japan). […]
endpointLabel: inhibition at 300 µM (%)

Some compounds with recorded inhibition at 300 µM:
{"columns": ["compound", "experimentalSystem", "inhibition at 300 µM [%]"],
 "data": [
  ["Cc1csc(C(=O)N/N=C/c2cccc(F)c2)c1NC(=O)c1cccc(CN2CCC(O)CC2)c1", "rat NaPi-2b (Rattus norvegicus, UniProt Q9JJ09)", 41.1],
  ["Cc1cccc(/C=N/NC(=O)c2cc(Br)ccc2NC(=O)c2ccc(CN3CCC(CCO)CC3)cc2)c1", "rat NaPi-2b (Rattus norvegicus, UniProt Q9JJ09)", 77.6],
  ["Cc1csc(NC(=O)c2cccc(CSCCS(=O)(=O)O)c2)c1C(=O)N/N=C/c1ccc(Cl)c(C(F)(F)F)c1", "rat NaPi-2b (Rattus norvegicus, UniProt Q9JJ09)", 88.5],
  ["O=C(Nc1ccc(Br)cc1C(=O)N/N=C/c1ccc(Cl)c(C(F)(F)F)c1)c1ccc(CN2CCN(c3ccccn3)CC2)cc1", "rat NaPi-2b (Rattus norvegicus, UniProt Q9JJ09)", 49.2]
]}

A: CCN1CC(NCc2ccc(-c3nc4ccc(Br)cc4c(=O)n3/N=C/c3ccc(OC)cc3)cc2)CN1CC
B: O=C(Nc1ccc(Br)cc1C(=O)N/N=C/c1cccc(F)c1)c1ccc(CN2CCN(c3ccccn3)CC2)cc1
C: C/C(=N\NC(=O)c1ccccc1NC(=O)c1cccnc1)c1ccc(C)cc1
List from greatest to least inhibition at 300 µM. Your reply should list the labels following the order given in the request.
A, B, C

I: O=C(Nc1ccccc1C(=O)N/N=C/c1cccc(F)c1)c1ccccc1F
II: Cc1ccc(/C=N/NC(=O)c2cc(Br)ccc2NC(=O)c2ccc(CN3CCN(c4ccccn4)CC3)cc2)cc1C
Given I and given II , which shows the smaller recorded inhibition at 300 µM? In your reply, give the label of the chosen option.
I
